Target protein (sequence): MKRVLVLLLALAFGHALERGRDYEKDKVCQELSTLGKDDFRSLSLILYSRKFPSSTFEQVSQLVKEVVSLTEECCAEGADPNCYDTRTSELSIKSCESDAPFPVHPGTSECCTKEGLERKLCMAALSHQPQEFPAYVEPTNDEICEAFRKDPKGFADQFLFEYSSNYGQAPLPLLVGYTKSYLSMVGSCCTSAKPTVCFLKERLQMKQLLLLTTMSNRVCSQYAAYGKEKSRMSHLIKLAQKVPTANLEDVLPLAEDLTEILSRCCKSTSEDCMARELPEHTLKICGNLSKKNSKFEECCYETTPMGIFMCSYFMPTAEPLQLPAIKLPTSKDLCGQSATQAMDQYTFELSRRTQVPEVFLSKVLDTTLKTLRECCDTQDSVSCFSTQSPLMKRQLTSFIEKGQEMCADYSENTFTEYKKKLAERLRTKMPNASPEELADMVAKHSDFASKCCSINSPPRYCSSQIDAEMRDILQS
Property Label: IC50 (nM)

{"Molecule": "C=C1/C(=C\\C=C\\C2CCC3(C)C(CCC3C(C)CCCC(C)(C)O)C2)C[C@@H](C)C[C@@H]1C (stereo partly specified)", "Result Number": 40}

###

# Experimental Target: Vitamin D-binding protein (Homo sapiens, UniProt V9HWI6)
# Sequence (V9HWI6 whole entry): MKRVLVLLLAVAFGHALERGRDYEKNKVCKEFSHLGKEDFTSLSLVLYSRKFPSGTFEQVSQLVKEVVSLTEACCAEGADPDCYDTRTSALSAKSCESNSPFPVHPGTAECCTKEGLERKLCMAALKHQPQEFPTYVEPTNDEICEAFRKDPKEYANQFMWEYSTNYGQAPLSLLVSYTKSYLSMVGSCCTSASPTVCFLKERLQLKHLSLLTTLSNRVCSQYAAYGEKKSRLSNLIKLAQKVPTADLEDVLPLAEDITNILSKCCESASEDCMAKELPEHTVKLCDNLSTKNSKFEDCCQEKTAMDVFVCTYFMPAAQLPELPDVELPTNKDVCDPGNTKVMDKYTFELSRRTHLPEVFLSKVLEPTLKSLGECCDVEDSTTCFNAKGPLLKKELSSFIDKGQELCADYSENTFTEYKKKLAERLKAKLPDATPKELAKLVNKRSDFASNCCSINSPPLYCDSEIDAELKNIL
# Experiment: DBP Binding Assay
# Assay Conditions: pH 7.4; 4 °C

{"Molecule": "C=C1/C(=C\\C=C\\C2CCC3(C)C(CCC3C(C)CCCC(C)(C)O)C2)C[C@@H](C)C[C@@H]1C (stereo partly specified)", "IC50": "200 nM"}
